# experimental-target: HLA-A*24:02
# measurement-notes: IEDB peptide-MHC binding, purified MHC/competitive/radioactivity; filed as Kd, often an IC50 or EC50 that approximates it; bounds were set here for any values at or beyond the usual limits of such assays
# assay-setup: source organism: Dengue virus 4 Philippines/H241/1956
measure: Kd (nM)
Just the number please, in nM, no unit attached.

The value of Kd measured for the sequence TWLVHKQWF turned out to be 302

###

# experimental-target: HLA-A*11:01
# measurement-notes: IEDB peptide-MHC binding, purified MHC/competitive/fluorescence; bounds were set here for any values at or beyond the usual limits of such assays
# assay-setup: source organism: Zaire ebolavirus
Readings of IC50 for the listed sequences
Just the number please, in µM, no unit attached.

Past entries and their recorded results:
[[record]]
primary_sequence = "HSFEEMYRH"
result_unit = "µM"
test_value = 3.29

[[record]]
primary_sequence = "GIYIEGLMH"
result_unit = "µM"
test_value = 9.23

[[record]]
primary_sequence = "TLRKERLAK"
result_unit = "µM"
test_value = 4.25

[[record]]
primary_sequence = "PNRSTKGGQ"
result_unit = "µM"
test_value = 46.5

[[record]]
primary_sequence = "VIYRGTTFA"
result_unit = "µM"
test_value = 38


# lookup: NISGQSPAR on HLA-A*11:01, IC50 = 47.6

# lookup: EVKKRDGVK on HLA-A*11:01, IC50 = 66.4

# lookup: ITGGRRTRR on HLA-A*11:01, IC50 = 9.09
